System: Setaria
Assay: Pre-emergence test, Setaria
Format: in vivo
Conditions: 504 h, after three weeks, 0%=no action, 100%=total destruction, read-out: % Activity (damage to the plants)
measured_quantity: activity at 500 g/ha

substance_smiles	activity at 500 g/ha
Cc1cc(C)c(-c2c(O)cc(C(C)(C)C)oc2=O)c(C)c1	70 to 100%

Form field: activity at 500 g/ha recorded for "Cc1cc(C)c(-c2c(O)cc(C)oc2=O)c(C)c1" with Setaria (enter value)
70 to 100%

Form field: activity at 500 g/ha recorded for "Cc1cc(C)c(-c2c(O)cc(-c3cc(Cl)c(Cl)s3)oc2=O)c(C)c1" with Setaria (enter value)
70 to 100%

Form field: activity at 500 g/ha recorded for "CC(=O)Oc1cc(C(C)(C)C)oc(=O)c1-c1c(C)cc(C)cc1C" with Setaria (enter value)
70 to 100%

Form field: activity at 500 g/ha recorded for "Cc1cc(C)c(-c2c(O)c(C)c(C)oc2=O)c(C)c1" with Setaria (enter value)
70 to 100%
